- System: HS 578T breast
- procedureSummary: NCI tumour cell line growth inhibition, 48 h
measurementName: TGI (µM)
Numeric answer only, unit µM assumed.

COc1cc(/C=C2\N=C(c3ccccc3)N(c3nc4cc(C)c(C)cc4s3)C2=O)cc(OC)c1OC : 98
COc1ccc2c(c1)C(=O)c1c-2c(OCCN(C)C)nc2cc(OC)ccc12 : 9.76
C/C(=N/NC(=S)N(C)CCc1ccccn1)c1cnccn1 : 53.9

// query Find the recorded TGI belonging to `Cc1cc(Nc2cc(CN3CCOCC3)c3nc(C)c(Cc4ccc(Cl)cc4F)n3n2)n[nH]1` and report it.
// result 5.6

// query // lookup TGI for `CN(C)CCNC(=O)c1cccc2cc([N+](=O)[O-])ccc12`
// result 7.16

---

- Tested on: SK-MEL-5 melanoma
- procedureSummary: NCI tumour cell line growth inhibition, 48 h; in the data active = GI50 below about 0.43 µM; inactive = the rest
Your reply should match one of these outcome classes. TRUE = active, FALSE = inactive

O=C(CCc1ccco1)NC1CCN(CC2(c3ccc(Cl)cc3)CCC2)CC1 : FALSE

// query Write down the call the test reported for this compound. Item: `Cc1cc(C(=O)N[C@@H](CCC(=O)O)C(=O)O)sc1CC[C@@H]1CNc2nc(N)[nH]c(=O)c2C1`
// result TRUE

// query Can you look up the reported call for `COc1cccc2c1nc1cccc(OC)c1[n+]2[O-]` for me?
// result FALSE

// query Hi team, can someone confirm the assay call for `COc1ccc2c(c1)C(=O)c1c-2c(OCCN(C)C)nc2cc(OC)ccc12` ?
// result FALSE

// query Fill in: this test's call for COc1cc(/C=C/C(=O)NC[C@]2(O)CCC3C4CCc5cc(O)ccc5C4CCC32C)ccc1O (stereo not given in full) is ___
// result FALSE

---

- Test system: COLO 205 colon
- procedureSummary: NCI tumour cell line growth inhibition, 48 h
The reader will find reported TGI values listed item by item below.
Number only, in µM; omit the unit.

CCOC(=O)c1ccc(NC(=O)O/N=C(/Cl)C(C)C)cc1 : 5.77
O=C1c2ccccc2C(=O)c2c(NC(=O)C(Cl)CCl)cccc21 (configuration not stated) : 26.9
COc1cc(-c2nc3ccccc3[nH]2)ccc1OCC(=O)N=Nc1c(O)[nH]c2ccc(Cl)cc12 : 3.79
c1ccc(CN2CCCN3CCN(CCCN(Cc4ccccc4)CC3)CC2)cc1 : 57.8
O=C1OCC2=C1C(c1cccc(C(F)(F)F)c1)c1cc3c(cc1N2CCO)OCO3 (configuration not stated) : 3.26

Now let's try a different one.
// query Could you share which TGI value was measured for `COc1ccc2[nH]c(-c3ccccc3)c(C=C(C#N)C#N)c2c1` ?
// result 6.83

---

- Tested on: OVCAR-8 ovarian
- procedureSummary: NCI tumour cell line growth inhibition, 48 h
measurementName: GI50

Cc1ccc(Nc2[nH]c(C(=O)c3ccc(Cl)cc3)c(N)c2C(=S)Nc2ccccc2)nc1 : 22 µM
O=[N+]([O-])c1cccc(/C=C/c2ccccn2)c1 : 45 µM
C=CCC(N[C@@H](CO)c1ccccc1)c1ccccn1 (some centres undefined) : > 100 µM
CN(C)CCN1C(=O)c2cccc3c(N)ccc(c23)C1=O : 9.53 µM
CCCCCCCCCCCCOC1C(CNCC2OC3OC(C)(C)OC3C2NC(=O)Nc2ccc(C(F)(F)F)cc2)OC2OC(C)(C)OC21 (centres undefined) : 6.81 µM
O=C(Nc1ccc(Cl)cc1F)c1cc(F)ccc1O : 2.4 µM
CC(N)(Cc1c[nH]c2ccccc12)C(=O)O (centres undefined) : > 2500 µM
CC(C)(C)OC(=O)N1CC(Cn2cc(C(F)(F)F)c3c(Cl)ncnc32)C1 : 1.84 µM

// query So what's the measured GI50 for this one? `COc1nc2c(cc1S(=O)(=O)c1ccccc1)CCc1c-2cnn1Cc1ccccc1`
// result 34.5 µM

// query Need GI50 of `COc1cc(OC)cc(-c2ccc(-c3ccc(C(=N)N)s3)s2)c1` , thanks.
// result 1.66 µM

// query Field request: GI50 | item: `COc1ccc2c(c1)C(=O)c1c-2c(OCCN(C)C)nc2cc(OC)ccc12`
// result 0.957 µM

// query Can you look up the measured GI50 of `Fc1c[c-]c(-c2ccccn2)c(F)c1.[CH3-].[Pt+2].c1ccc([PH+](c2ccccc2)c2ccccn2)cc1` for me?
// result 2.25 µM

// query Recorded GI50 of `C=CC(=O)NCCOc1cccc(Nc2cc(NCCCNC(=O)C3CCC3)c(Br)cn2)c1` , please.
// result 1.82 µM

// query Fill blank: measured GI50 of the compound `COc1ccc(S(=O)(=O)NC2=NCCN2C(=S)SN2CCn3c2nsc3=S)cc1OC` is ____.
// result 29.5 µM

---

- System: SN12C renal
- procedureSummary: NCI tumour cell line growth inhibition, 48 h; in the data active = GI50 below about 0.43 µM; inactive = the rest
The categories you may choose from are TRUE = active, FALSE = inactive

Record excerpt, results attached:
COc1ccc2c(O)c(/C=C3\N=Nc4ncccc43)oc2c1C[C@H]1CCNC[C@H]1F : FALSE
Cc1cc(Nc2cc(CN3CCOCC3)c3nc(C)c(Cc4ccc(Cl)cc4F)n3n2)n[nH]1 : FALSE
CCCCCCCCCCCCOC1C(CNCC2OC3OC(C)(C)OC3C2NC(=O)Nc2ccc(C(F)(F)F)cc2)OC2OC(C)(C)OC21 (stereo not drawn) : FALSE
COc1ccc2c(c1)CC[C@@H]1[C@@H]2CC[C@]2(C)c3[nH]ncc3C[C@@H]12 : FALSE

// query Tell me the recorded outcome of this test for `COc1ccc(S(=O)(=O)NC2=NCCN2C(=S)SN2CCn3c2nsc3=S)cc1OC` .
// result FALSE

// query Record request — test call for C[n+]1c2cc(N)ccc2cc2ccc(N)cc21 (tested in a mixture with another compound)
// result TRUE

// query Any idea what this test logged for `Clc1nc(Cl)c2ncn(C/C=C/Cn3cnc4c(Cl)nc(Cl)nc43)c2n1` ?
// result FALSE

// query Fill in: this test's call for `C[C@H](C(=O)N[C@@H](Cc1ccc(-c2ccccc2)cc1)C(=O)NC1CC(C)(C)N(C)C(C)(C)C1)c1ccc(-c2ccccc2)c(F)c1` is ___
// result FALSE

---

TGI overview
- Tested on: A549 NSCLC
- procedureSummary: NCI tumour cell line growth inhibition, 48 h

C=C(C)C1CC2=C(O1)C(=O)c1ccccc1C2=O (stereo unspecified) : 42.3 µM
CSC1=C(C#N)C(=O)N(c2ccc(Cl)cc2)C(=O)C1C#N (stereo unspecified) : > 100 µM
O=S(=O)(O)c1cc(N=Nc2cc(S(=O)(=O)O)c3ccccc3c2O)ccc1/C=C/c1ccc(N=Nc2cc(S(=O)(=O)O)c3ccccc3c2O)cc1S(=O)(=O)O : > 1000 µM
NC1=NN(c2ccccc2)C(=O)C1/C(=N\NC(=O)c1cc2ccccc2cc1O)C(=O)Nc1nc([N+](=O)[O-])cs1 (stereo unspecified) : > 100 µM
Nc1ccc(OCC(O)N2C(=O)c3ccccc3C2=O)cc1 (stereo unspecified) : > 100 µM

// query Sample O=C1OCC2=C1C(c1cccc(C(F)(F)F)c1)c1cc3c(cc1N2CCO)OCO3 (stereo unspecified) — what was its TGI?
// result > 50 µM

// query Bench note: what TGI did C=C(C)C(=O)OC1C(C(C)CCCO)=C(CO)CC2OC(=O)C(=C)C21 (stereo unspecified) show?
// result 63.7 µM

// query Give the measured TGI of COC(=O)/C=C\[C@@H]1[C@H](C)N1S(=O)(=O)c1ccc(C)cc1 (stereo partly specified) .
// result > 100 µM

// query Fill blank: measured TGI of the molecule `CCN(CC)CCOc1ccc(N2Cc3ccccc3C2=O)cc1` is ____.
// result > 10 µM

// query I have this molecule here, C[n+]1c2ccccc2c(C(=O)NC(CCCN=C(N)N)C(=O)O)c2ccccc21 (stereo unspecified) , and I need its recorded TGI.
// result > 100 µM

// query Field request: TGI | item: O=S(Nc1ccccc1)c1ccc(-c2ccccc2)cc1 (stereo unspecified)
// result > 100 µM

// query Param item = `CC(=O)Nc1ccc(-c2nc3ccccc3s2)cc1Cl` ; retrieve measured TGI.
// result > 100 µM

// query // TGI lookup, key: `O=C(O)c1c([N+](=O)[O-])cc(C(F)(F)F)cc1[N+](=O)[O-]`
// result > 100 µM

// query Value lookup for TGI; key = `COc1cc(OC)cc(-c2ccc(-c3ccc(C(=N)N)s3)s2)c1`
// result 3.37 µM

// query Which measured TGI value corresponds to `CC(C)Oc1c(C2(c3ccccc3O)SCCCS2)c(=O)c1=O` ?
// result > 100 µM

// query Report TGI for `COc1ccc(C(=O)Nc2ccc(S(=O)(=O)NCC(=O)O)cc2)cc1` please.
// result > 100 µM

// query Look up TGI for this molecule: `COCOc1cc(OC)c(Br)cc1C/C(=N/O)C(=O)OC`
// result > 100 µM

Value source: PubChem BioAssay (NCI)
